- measured on: T1, RBFOX1 RRM RbFoxmut (Fox-RRM*) (Homo sapiens, UniProt Q9NWB1 109-208, R118D;E147R;N151S;E152T)
- T1 sequence: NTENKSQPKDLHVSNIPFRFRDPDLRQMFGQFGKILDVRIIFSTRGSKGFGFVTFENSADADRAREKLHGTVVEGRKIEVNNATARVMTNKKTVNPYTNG
- assay details: EMSA; HiTS-Eq, 1 nM pool, 10 min; buffer printed only for the single-RNA assays: 10 mM Tris pH 7.5, 150 mM NaCl, 3.4 mM EDTA, 0.001% NP-40, 30 C
- reported conditions: tags: His6 N-terminal (pET28a); label: 5' 32P
Over roughly 16,000 sequences, “ka relative to ugcaugu” has its median near 0.096; the highest 2% begin near 0.35. The sample holds the highest values, similar sequences and a random draw of the others, so the mix is not that of the screen.
# maps each entry to its binding signal

Example entries and their recorded answers appear below.
binder	binding signal
ACCAGGU (DNA:RNA) RNA: GGGAGACCGGAAUUCAGAUUGUCCACCAGGUUUAAAUCCCGUCGUAGCCACCA DNA 1: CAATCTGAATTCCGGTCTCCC DNA 2: TGGTGGCTACGACGGGATT	0.11 KA relative to UGCAUGU
AGGUUGU (DNA:RNA) RNA: GGGAGACCGGAAUUCAGAUUGUCCAGGUUGUUUAAAUCCCGUCGUAGCCACCA DNA 1: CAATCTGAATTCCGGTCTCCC DNA 2: TGGTGGCTACGACGGGATT	0.332 KA relative to UGCAUGU

In: Requested read-out: binding signal. Entry: GUCCAGG (DNA:RNA) RNA: GGGAGACCGGAAUUCAGAUUGUCCGUCCAGGUUAAAUCCCGUCGUAGCCACCA DNA 1: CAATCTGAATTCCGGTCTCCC DNA 2: TGGTGGCTACGACGGGATT
Out: 0.0991 KA relative to UGCAUGU

In: Suppose we examine the binder CCGCAUC (DNA:RNA) RNA: GGGAGACCGGAAUUCAGAUUGUCCCCGCAUCUUAAAUCCCGUCGUAGCCACCA DNA 1: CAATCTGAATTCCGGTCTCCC DNA 2: TGGTGGCTACGACGGGATT ; what binding signal value has been reported?
Out: 0.258 KA relative to UGCAUGU
